Target: Human G9a (Homo sapiens)
Sequence (Q96KQ7 786-1210 limits assumed): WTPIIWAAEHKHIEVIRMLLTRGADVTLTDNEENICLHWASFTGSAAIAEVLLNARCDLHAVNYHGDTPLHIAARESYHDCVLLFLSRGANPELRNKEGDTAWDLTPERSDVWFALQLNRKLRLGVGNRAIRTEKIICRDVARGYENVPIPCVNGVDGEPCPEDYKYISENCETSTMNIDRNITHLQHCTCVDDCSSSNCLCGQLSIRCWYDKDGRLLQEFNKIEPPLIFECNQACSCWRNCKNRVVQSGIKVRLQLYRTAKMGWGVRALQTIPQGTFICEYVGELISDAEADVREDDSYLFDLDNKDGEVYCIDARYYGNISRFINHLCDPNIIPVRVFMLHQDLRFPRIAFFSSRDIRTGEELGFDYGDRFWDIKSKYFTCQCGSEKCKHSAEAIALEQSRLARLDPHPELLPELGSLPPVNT
Test: G9a assay (3H-AdoMet filter-binding)
Assay type: biochemical
Conditions: 6.2 μM
Reported inhibition at 6.2 µM values for a set of compounds
Could you give me the number in %? Just the number is fine.

Sample records with inhibition at 6.2 µM:
Record Smiles | Target Or System | inhibition at 6.2 µM [%]
CN1CCCN(c2nc(NC3CCN(Cc4ccccc4)CC3)c3ccccc3n2)CC1 | Human G9a (Homo sapiens) | 0
c1ccc(CN2CCC(Nc3nc(N4CCN(c5ccccc5)CC4)nc4ccccc34)CC2)cc1 | Human G9a (Homo sapiens) | 4.2
c1ccc(CN2CCC(Nc3nc(N4CCCC4)nc4ccccc34)CC2)cc1 | Human G9a (Homo sapiens) | 4.6

Shift focus to the following entry.
Query :: Suppose we examine the compound `c1ccc(CN2CCC(Nc3nc(N4CCN(c5ccccn5)CC4)nc4ccccc34)CC2)cc1` ; what inhibition at 6.2 µM value has been reported?
Result :: 16.7
